- Target Under Test: UniProt P21917
- Assay Details: Cellular functional assay, D4 dopaminergic receptors
- Type: cell-based
- Setup Conditions: agonism, D4.4 (h), CHO cells, percent of control specific agonist response (300 nM dopamine for control)
Quantity: D4 ag [%] (%)
Give bare numbers, in %.

Below, each entry is followed by its recorded D4 ag [%] result.
>>> measured_value("O=S(=O)(NC1CN(CCOc2cccc3c2OCCO3)C1)c1cccc2ccccc12 [Compound 94]")
60
>>> measured_value("Cc1cc(S(=O)(=O)N[C@@H]2CCN(CCCc3noc4cc(F)ccc34)C2)c(C)s1 [Compound 222]")
6
>>> measured_value("O=S(=O)(N[C@H]1CCN(CCCc2noc3cc(F)ccc23)C1)c1csc2ccccc12 [Compound 225]")
"−3"
>>> measured_value("O=S(=O)(NC1CCN(CCCc2noc3cc(F)ccc23)C1)c1cccc2ccccc12 (stereo not shown) [Compound 20]")
17
>>> measured_value("Cc1cc(S(=O)(=O)N[C@H]2CCN(CCCc3noc4cc(F)ccc34)C2)c(C)s1 [Compound 223]")
4

For the 2 compounds below, give their D4 ag [%] values.
1. Cc1cc(S(=O)(=O)NC2CCN(CCCc3noc4cc(F)ccc34)C2)c(C)s1 (stereo not shown) [Compound 221]
2. O=S(=O)(N[C@@H]1CCN(CCCc2noc3cc(F)ccc23)C1)c1csc2ccccc12 [Compound 224]

10
−7

For the 3 compounds below, give their D4 ag [%] values.
1. O=S(=O)(NC1CCN(CCCc2c[nH]c3ccc(F)cc23)C1)c1ccc2ccccc2c1 (stereo not shown) [Compound 80]
2. O=S(=O)(NC1CN(CCOc2cccc3[nH]ccc23)C1)c1ccc2ccccc2c1 [Compound 50]
3. O=S(=O)(NC1CCN(CCCc2noc3cc(F)ccc23)C1)c1csc2ccccc12 (stereo not shown) [Compound 26]

6
62
−4

* * *

- Target Under Test: receptors D4.4 (Homo sapiens)
- Sequence (P21917 1-419): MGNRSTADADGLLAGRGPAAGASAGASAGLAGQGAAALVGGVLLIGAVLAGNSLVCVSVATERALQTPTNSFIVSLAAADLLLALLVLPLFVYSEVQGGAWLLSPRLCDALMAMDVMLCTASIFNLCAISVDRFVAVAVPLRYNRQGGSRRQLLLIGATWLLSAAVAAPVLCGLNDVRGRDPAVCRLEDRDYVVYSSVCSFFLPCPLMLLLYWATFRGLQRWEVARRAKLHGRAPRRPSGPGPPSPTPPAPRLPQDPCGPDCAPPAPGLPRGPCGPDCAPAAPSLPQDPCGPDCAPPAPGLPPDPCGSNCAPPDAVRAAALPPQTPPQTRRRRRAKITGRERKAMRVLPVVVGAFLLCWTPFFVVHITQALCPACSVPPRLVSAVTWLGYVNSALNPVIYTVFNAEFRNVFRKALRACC
- Assay Details: Radioligand binding assay, dopaminergic D4 (D4.4) receptors
- Setup Conditions: test compound 1×10^−6 M
For each entry below, report its inhibition at 1 µM value.
Numbers only, in %.

Below, each entry is followed by its recorded inhibition at 1 µM result.
>>> measured_value("O=S(=O)(N[C@H]1CCN(CCCc2noc3cc(F)ccc23)C1)c1csc2ccccc12")
91
>>> measured_value("Cc1ccc2sc(S(=O)(=O)N[C@H]3CCN(CCCc4noc5cc(F)ccc45)C3)cc2c1")
86
>>> measured_value("Cc1c(S(=O)(=O)NCC2CCN(CCCc3noc4cc(F)ccc34)C2)sc2ccc(Cl)cc12 (stereo not drawn)")
48
>>> measured_value("O=S(=O)(N[C@@H]1CCN(CCCc2noc3cc(F)ccc23)C1)c1cc2ccccc2o1")
61
>>> measured_value("Cc1c(S(=O)(=O)N[C@@H]2CCN(CCCc3noc4cc(F)ccc34)C2)sc2ccc(F)cc12")
76
>>> measured_value("O=S(=O)(N[C@H]1CCN(CCCc2noc3cc(F)ccc23)C1)c1ccc2cc(Cl)ccc2c1")
50

For the 4 compounds below, give their inhibition at 1 µM values.
1. O=S(=O)(N[C@@H]1CCN(CCCc2noc3cc(F)ccc23)C1)c1ccc2cc(Cl)ccc2c1
2. O=S(=O)(N[C@@H]1CCN(CCCc2noc3cc(F)ccc23)C1)c1csc2ccccc12
3. Cc1cc(S(=O)(=O)NCC2CCN(CCOc3cccc4c3OCCO4)C2)c(C)s1 (stereo not drawn)
4. O=S(=O)(NC1CCN(CCOc2nsc3ccccc23)C1)c1ccc2ccccc2c1 (stereo not drawn)

1. 49
2. 101
3. 52
4. 73

For the 2 compounds below, give their inhibition at 1 µM values.
1. O=S(=O)(NCC1CCN(CCCc2noc3cc(F)ccc23)C1)c1ccc2cc(Cl)ccc2c1 (stereo not drawn)
2. Cc1cc(S(=O)(=O)NC2CCN(CCCc3noc4cc(F)ccc34)C2)c(C)s1 (stereo not drawn)

1. 48
2. 93

For the 8 compounds below, give their inhibition at 1 µM values.
1. COc1cccc(S(=O)(=O)NCC2CN(CCCc3noc4cc(F)ccc34)C2)c1
2. O=S(=O)(N[C@@H]1CCN(CCCc2noc3cc(F)ccc23)C1)c1cc2ccc(Cl)cc2s1
3. Cc1c(S(=O)(=O)NCC2CN(CCCc3noc4cc(F)ccc34)C2)sc2ccc(Cl)cc12
4. O=S(=O)(NCC1CN(CCCc2noc3cc(F)ccc23)C1)c1ccc(-c2ccccc2)cc1
5. Cc1ccc2sc(S(=O)(=O)NC3CCN(CCCc4noc5cc(F)ccc45)C3)cc2c1 (stereo not drawn)
6. O=S(=O)(N[C@@H]1CCN(CCCc2noc3cc(F)ccc23)C1)c1cc2ccccc2s1
7. O=S(=O)(NCC1CN(CCCc2noc3cc(F)ccc23)C1)c1cccc2ccccc12
8. O=S(=O)(NCC1CCN(CCCc2noc3cc(F)ccc23)C1)c1ccc(-c2ccccc2)cc1 (stereo not drawn)

[80, 48, 50, 60, 69, 78, 88, 33]

For the 4 compounds below, give their inhibition at 1 µM values.
1. Cc1c(S(=O)(=O)NC2CCN(CCCc3noc4cc(F)ccc34)C2)sc2ccc(Cl)cc12 (stereo not drawn)
2. O=S(=O)(NCC1CCN(CCCc2noc3cc(F)ccc23)C1)c1ccc2ccccc2c1 (stereo not drawn)
3. O=S(=O)(NC1CCN(CCCc2c[nH]c3ccc(F)cc23)C1)c1ccc2ccccc2c1 (stereo not drawn)
4. Cn1ccc2cc(S(=O)(=O)NC3CCN(CCCc4noc5cc(F)ccc45)C3)ccc21 (stereo not drawn)

[16, 57, 91, 86]
